Target: HLA-C*15:02
Assay: IEDB peptide-MHC binding, purified MHC/direct/fluorescence; filed as Kd, often an IC50 or EC50 that approximates it; bounds were set here for any values at or beyond the usual limits of such assays
Conditions: source organism: Corynebacterium glutamicum ATCC 13032
Assay Metric: Kd (nM)

1. RIFPATHYV : 17

====

Target: HLA-A*24:03
Assay: IEDB peptide-MHC binding, purified MHC/direct/fluorescence; filed as Kd, often an IC50 or EC50 that approximates it; bounds were set here for any values at or beyond the usual limits of such assays
Details: source organism: Cowpox virus
pKd: −log10 of the molar value.
Assay Metric: pKd

1) VYSFDESSF : 6.56

====

Biological target: HLA-A*68:02
Experiment: IEDB peptide-MHC binding, purified MHC/competitive/radioactivity; filed as Kd, often an IC50 or EC50 that approximates it; bounds were set here for any values at or beyond the usual limits of such assays
Conditions: source organism: Dengue virus 4 Philippines/H241/1956
Parameter: Kd. Scope: all listed entries.
Assay Metric: Kd (nM)

1. ITPRSPSVEV : 575
2. QIHLAIMAV : 287

====

Target: HLA-A*02:01
Assay: IEDB peptide-MHC binding, purified MHC/direct/fluorescence; filed as Kd, often an IC50 or EC50 that approximates it; bounds were set here for any values at or beyond the usual limits of such assays
Settings: source organism: Mycobacterium tuberculosis
Assay Metric: Kd

1. WMRGRGRAL : ≥ 20 µM
2. SFYGYGFNV : 0.413 µM
3. WEITYLGTT : ≥ 20 µM

====

Target: HLA-A*24:02
Assay: IEDB peptide-MHC binding, purified MHC/competitive/radioactivity; filed as Kd, often an IC50 or EC50 that approximates it; bounds were set here for any values at or beyond the usual limits of such assays
Conditions: source organism: Dengue virus 2 Jamaica/1409/1983
pKd: −log10 of the molar value.
Assay Metric: pKd

1. QWFLDLPLPW : 6.94

====

Molecular target: HLA-A*02:01
Test: IEDB peptide-MHC binding, purified MHC/competitive/fluorescence; filed as Kd, often an IC50 or EC50 that approximates it; bounds were set here for any values at or beyond the usual limits of such assays
Settings: source organism: Vaccinia virus Tian Tan
Assay Metric: Kd (nM)

1) ILNDEQLNL : 0.7

====

Target: HLA-A*68:02
Test: IEDB peptide-MHC binding, purified MHC/competitive/fluorescence; filed as Kd, often an IC50 or EC50 that approximates it; bounds were set here for any values at or beyond the usual limits of such assays
Conditions: source organism: Giardia lamblia ATCC 50803
pKd: −log10 of the molar value.
Assay Metric: pKd

1) RTMPLSRFT : 5.34

====

Target: HLA-B*15:01
Assay: IEDB peptide-MHC binding, purified MHC/competitive/fluorescence; filed as Kd, often an IC50 or EC50 that approximates it; bounds were set here for any values at or beyond the usual limits of such assays
Settings: source organism: Escherichia coli str. K-12 substr. MG1655
pKd: −log10 of the molar value.
Assay Metric: pKd

1. RINEGWPAY : 7.08
2. KVGITGFCY : 6.61

====

Molecular target: HLA-B*57:01
Experiment: IEDB peptide-MHC binding, purified MHC/direct/fluorescence; filed as Kd, often an IC50 or EC50 that approximates it; bounds were set here for any values at or beyond the usual limits of such assays
Details: source organism: Orthohantavirus dobravaense
Assay Metric: Kd (µM)

1. KALIATATW : 0.0253
